test system: DU-145; experiment: Potency index, ratio of curcumin IC50 to test compound IC50 for human DU145 cells; type: functional
This section presents compounds with their documented Ratio IC50 values.
Reply: number alone, nothing else.

Here's what some known entries look like.
(Q) Fill blank: measured Ratio IC50 of the compound CCC(C)n1ccnc1/C=C/C(=O)/C=C/c1ccccn1 (stereo unspecified) is ____.
(A) 77

(Q) Another: CC(C)n1ccnc1/C=C/C(=O)/C=C/c1cnc(N2CCCCC2)s1
(A) 10

(Q) Another: CCC(C)n1ccnc1/C=C/C(=O)/C=C/c1nc2ccccc2n1C(C)CC (stereo unspecified)
(A) 75

Please find the next compound below.
(Q) Fill blank: measured Ratio IC50 of the compound CCC(C)n1ccnc1/C=C/C(=O)/C=C/c1cc(OC)c(OC)c(OC)c1 (stereo unspecified) is ____.
(A) 39

* * *

This section presents compounds with their documented Ratio IC50 values.
system: PWR-1E; experiment: Potency index, ratio of curcumin IC50 to test compound IC50 for human PWR-1E cells expressing androgen receptor and PSA; assay type: functional

Here's what some known entries look like.
(Q) Fill blank: measured Ratio IC50 of the compound CCC(C)n1ccnc1/C=C/C(=O)/C=C/c1nn(C)cc1Br (centres undefined) is ____.
(A) 63

(Q) Another: CCC(C)n1ccnc1/C=C/C(=O)/C=C/c1ccccn1 (centres undefined)
(A) 52

(Q) Another: CCCC(C)n1ccnc1/C=C/C(=O)/C=C/c1nc2ccccc2n1C(C)CCC (centres undefined)
(A) 221

(Q) Another: CCC(C)n1ccnc1/C=C/C(=O)/C=C/c1cccc(C)n1 (centres undefined)
(A) 68

Others:
(Q) Fill blank: measured Ratio IC50 of the compound CCC(C)n1ccnc1/C=C/C(=O)/C=C/c1nccs1 (centres undefined) is ____.
(A) 63

(Q) Another: CCCn1ccnc1/C=C/C(=O)/C=C/c1nc2ccccc2n1CCC
(A) 443

(Q) Another: CCC(C)n1ccnc1/C=C/C(=O)/C=C/c1cc(C)on1 (centres undefined)
(A) 81

(Q) Another: CCC(C)n1ccnc1/C=C/C(=O)/C=C/c1sc(C)nc1C(F)(F)F (centres undefined)
(A) 81

(Q) Another: CCn1c(/C=C/C(=O)/C=C/c2ccccn2)nc2ccccc21
(A) 221

(Q) Another: Cc1nc(C(F)(F)F)c(/C=C/C(=O)/C=C/c2nc3ccccc3n2C(C)C)s1
(A) 177

* * *

tested on: PC-3; experiment: Antiproliferative activity against human PC3 cells assessed as decrease in cell viability after 3 days by WST assay; format: functional, cell-based; details: PC-3, 72 h
This section presents compounds with their documented pIC50 values.
pIC50 field: float, defined as -log10 of concentration (mol/L).

Here's what some known entries look like.
(Q) Hello, I am looking for reported pIC50 with PC-3 for COc1ccc(/C=C/C(=O)/C=C/c2ccccn2)cc1OC . Could you help?
(A) 5.77

(Q) Another: CCC(C)n1ccnc1/C=C/C(=O)/C=C/c1nccs1 (centres undefined)
(A) 6.41

(Q) Another: CCC(C)n1ccnc1/C=C/C(=O)/C=C/c1ccc(OC)c(OC)c1 (centres undefined)
(A) 5.88

Others:
(Q) Hello, I am looking for reported pIC50 with PC-3 for CCCCn1ccnc1/C=C/C(=O)/C=C/c1nc2ccccc2n1CCCC . Could you help?
(A) 6.72

(Q) Another: COc1cc(/C=C/C(=O)/C=C/c2ccccn2)cc(OC)c1OC
(A) 6.08

(Q) Another: CCn1c(/C=C/C(=O)/C=C/c2ccccn2)nc2ccccc21
(A) 6.64

(Q) Another: CCC(C)n1ccnc1/C=C/C(=O)/C=C/c1cccc(C)n1 (centres undefined)
(A) 6.59

(Q) Another: CCCn1ccnc1/C=C/C(=O)/C=C/c1nc2ccccc2n1CCC
(A) 7.00

(Q) Another: O=C(/C=C/c1ccccn1)/C=C/c1nccs1
(A) 6.26

(Q) Another: CCCn1c(/C=C/C(=O)/C=C/c2ccccn2)nc2ccccc21
(A) 6.60

(Q) Another: Cc1nc(C(F)(F)F)c(/C=C/C(=O)/C=C/c2nc3ccccc3n2C)s1
(A) 6.32

(Q) Another: CC(C)Cn1ccnc1/C=C/C(=O)/C=C/c1nc2ccccc2n1CC(C)C
(A) 6.70

(Q) Another: CCCn1c(/C=C/C(=O)/C=C/c2sc(C)nc2C(F)(F)F)nc2ccccc21
(A) 6.26

(Q) Another: CCC(C)n1ccnc1/C=C/C(=O)/C=C/c1conc1C (centres undefined)
(A) 6.43

* * *

tested on: DU-145; test: Antiproliferative activity against human DU145 cells assessed as decrease in cell viability after 3 days by WST assay; assay type: functional, cell-based; conditions: DU-145, 72 h
attributeMeasured: IC50 (nM)
Report the figure in nM without appending any unit label.

(Q) Hello, I am looking for reported IC50 with DU-145 for Cc1nc(C(F)(F)F)c(/C=C/C(=O)/C=C/c2nc3ccccc3n2C)s1 . Could you help?
(A) 780

(Q) Another: CCn1c(/C=C/C(=O)/C=C/c2ccccn2)nc2ccccc21
(A) 460

(Q) Another: CC(C)n1ccnc1/C=C/C(=O)/C=C/c1cnc(N2CCOCC2)s1
(A) 1320

Others:
(Q) Hello, I am looking for reported IC50 with DU-145 for CCC(C)n1ccnc1/C=C/C(=O)/C=C/c1ccccn1 (stereo unspecified) . Could you help?
(A) 340

(Q) Another: CCC(C)n1ccnc1/C=C/C(=O)/C=C/c1ccc(OC)c(OC)c1 (stereo unspecified)
(A) 850

* * *

tested on: PC-3; experiment: Potency index, ratio of curcumin IC50 to test compound IC50 for human PC3 cells; format: functional
Mark NOT MET for Ratio IC50 values under 70, and MET for everything at or above.

(Q) Could you verify whether the entry CCC(C)n1ccnc1/C=C/C(=O)/C=C/c1sc(C)nc1C(F)(F)F (stereo unspecified) shows Ratio IC50 of no less than 70?
(A) MET

Note: attention shifts to another entry.
(Q) Could you verify whether the entry CC(C)Cn1ccnc1/C=C/C(=O)/C=C/c1nc2ccccc2n1CC(C)C shows Ratio IC50 of no less than 70?
(A) MET

* * *

This section presents compounds with their documented Ratio IC50 values.
test system: DU-145; assay: Potency index, ratio of curcumin IC50 to test compound IC50 for human DU145 cells; type: functional

Here's what some known entries look like.
(Q) Fill blank: measured Ratio IC50 of the compound CC(C)n1ccnc1/C=C/C(=O)/C=C/c1nc2ccccc2n1C(C)C is ____.
(A) 138

(Q) Another: COc1cc(/C=C/C(=O)/C=C/c2ccccn2)cc(OC)c1OC
(A) 32

(Q) Another: Cc1cc(/C=C/C(=O)/C=C/c2ccccn2)no1
(A) 38

(Q) Another: CCC(C)n1ccnc1/C=C/C(=O)/C=C/c1cccc(C)n1 (configuration not stated)
(A) 90

(Q) Another: CCn1c(/C=C/C(=O)/C=C/c2ccccn2)nc2ccccc21
(A) 57

Others:
(Q) Fill blank: measured Ratio IC50 of the compound CCC(C)n1ccnc1/C=C/C(=O)/C=C/c1nn(C)cc1Br (configuration not stated) is ____.
(A) 94

(Q) Another: CCCn1c(/C=C/C(=O)/C=C/c2sc(C)nc2C(F)(F)F)nc2ccccc21
(A) 31

* * *

This section presents compounds with their documented Ratio IC50 values.
test system: PWR-1E; assay: Potency index, ratio of curcumin IC50 to test compound IC50 for human PWR-1E cells expressing androgen receptor and PSA; format: functional
Reply: number alone, nothing else.

Here's what some known entries look like.
(Q) Hello, I am looking for reported Ratio IC50 with PWR-1E for Cn1cc(Br)c(/C=C/C(=O)/C=C/c2ccccn2)n1 . Could you help?
(A) 89

(Q) Another: CC(C)n1c(/C=C/C(=O)/C=C/c2ccccn2)nc2ccccc21
(A) 885

(Q) Another: CC(C)n1ccnc1/C=C/C(=O)/C=C/c1nc2ccccc2n1C(C)C
(A) 293

Others:
(Q) Hello, I am looking for reported Ratio IC50 with PWR-1E for CCCn1c(/C=C/C(=O)/C=C/c2ccccn2)nc2ccccc21 . Could you help?
(A) 443

* * *

tested on: DU-145; assay: Antiproliferative activity against human DU145 cells assessed as decrease in cell viability after 3 days by WST assay; format: functional, cell-based; conditions: DU-145, 72 h
IC50 under 500 nM gets y, anything at or over 500 nM gets n.

(Q) Does the reported IC50 of the following molecule sit strictly below 500 nM? CCC(C)n1ccnc1/C=C/C(=O)/C=C/c1nc2ccccc2n1C(C)CC (stereo unspecified)
(A) y

(Q) Another: Cc1cccc(/C=C/C(=O)/C=C/c2ccccn2)n1
(A) n

(Q) Another: CC(C)n1c(/C=C/C(=O)/C=C/c2ccccn2)nc2ccccc21
(A) y

(Q) Another: CC(C)Cn1ccnc1/C=C/C(=O)/C=C/c1nc2ccccc2n1CC(C)C
(A) y

Others:
(Q) Does the reported IC50 of the following molecule sit strictly below 500 nM? COc1ccc(/C=C/C(=O)/C=C/c2ccccn2)cc1OC
(A) n

(Q) Another: CC(C)n1ccnc1/C=C/C(=O)/C=C/c1nc2ccccc2n1C(C)C
(A) y

(Q) Another: O=C(/C=C/c1ccccn1)/C=C/c1nccs1
(A) n

(Q) Another: CCC(C)n1ccnc1/C=C/C(=O)/C=C/c1nccs1 (stereo unspecified)
(A) y

(Q) Another: CCCCn1ccnc1/C=C/C(=O)/C=C/c1nc2ccccc2n1CCCC
(A) y
